assayDetails: Metabolic stability in hepatocyte
appliedConditions: Beagle, dog, hepatocytes
measuredQuantity: half-life at 10 μM

IN: Identify half-life at 10 μM associated with the molecule Cc1ncc2n1-c1ccc(Cl)cc1C(c1ccccc1F)=NC2 [Midazolam, reference compound]
OUT: 51.3 min

###

testedOn: MATE2-K (Homo sapiens, UniProt Q86VL8)
Construct: expressed in transfected cells; host or cells: MDCK-II cells
Sequence (Q86VL8 1-566 isoform Q86VL8-3): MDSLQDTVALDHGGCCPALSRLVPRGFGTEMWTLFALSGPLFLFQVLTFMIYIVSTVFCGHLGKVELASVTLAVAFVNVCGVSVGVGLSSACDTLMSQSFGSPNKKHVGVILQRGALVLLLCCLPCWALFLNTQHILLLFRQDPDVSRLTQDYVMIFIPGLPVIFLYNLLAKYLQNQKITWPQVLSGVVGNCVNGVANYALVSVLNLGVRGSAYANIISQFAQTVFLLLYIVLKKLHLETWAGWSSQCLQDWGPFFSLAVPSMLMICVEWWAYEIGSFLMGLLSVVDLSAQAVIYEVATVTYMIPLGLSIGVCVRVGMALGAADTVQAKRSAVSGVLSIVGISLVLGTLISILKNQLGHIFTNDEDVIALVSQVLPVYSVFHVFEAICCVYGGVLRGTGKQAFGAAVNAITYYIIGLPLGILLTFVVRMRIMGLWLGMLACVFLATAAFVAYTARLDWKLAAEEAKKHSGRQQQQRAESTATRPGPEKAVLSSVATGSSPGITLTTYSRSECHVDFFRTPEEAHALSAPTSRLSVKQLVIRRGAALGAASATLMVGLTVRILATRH
assayDetails: Transporter mediated assay (substrate/inhibitor), MDCK-II cells
Format: in vitro ADME
appliedConditions: human, polarized monolayer of MDCK-II cells expressing MATE2-K, No BSA, 100 μM
measuredQuantity: inhibition at 100 µM
The number alone won't do; follow it with the unit.

IN: Give measured inhibition at 100 µM for CN/C(=N/CCSCc1nc[nH]c1C)NC#N [cimetidine, reference compound] (MATE2-K (Homo sapiens, UniProt Q86VL8)).
OUT: 95.9%

###

assayDetails: Metabolic stability in liver microsomes
appliedConditions: rat, microsomes, pH 7.4
measuredQuantity: remaining at 1.5 h, 10 μM

IN: Identify remaining at 1.5 h, 10 μM associated with the compound Cc1ncc2n1-c1ccc(Cl)cc1C(c1ccccc1F)=NC2 [Midazolam, reference compound]
OUT: 0.1%

###

Tested on: CYP2B6 mRNA
assayDetails: CYP induction, mRNA, primary cultured human hepatocytes
appliedConditions: Fold Induction (CYP2B6 mRNA expression), hepatocyte Lot 348B, 1000 µM
measuredQuantity: fold induction at 48 h, 1000 µM
Give bare numbers.

IN: Identify fold induction at 48 h, 1000 µM associated with the compound CCC1(c2ccccc2)C(=O)NC(=O)NC1=O [Phenobarbital]
OUT: 12

###

testedOn: MATE2-K (Homo sapiens)
Construct: expressed in transfected cells; host or cells: MDCK-II cells
assayDetails: Transporter mediated assay (substrate/inhibitor), MDCK-II cells
Assay type: in vitro ADME
appliedConditions: human, polarized monolayer of MDCK-II cells expressing MATE2-K, 0.1% BSA, 10 μM
measuredQuantity: inhibition at 10 µM
The number alone won't do; follow it with the unit.

IN: Identify inhibition at 10 µM associated with the compound CCc1cc(Cl)c(OC)c(N2CCN(CC(O)CCNC(=O)c3cc4ccccc4[nH]3)CC2)c1 (stereo not shown) [R-VK4-116]
OUT: 37.8%

###

testedOn: P-gp (Homo sapiens, UniProt P08183)
Construct: expressed in transfected cells; host or cells: MDCK-II cells
Sequence (P08183 whole entry): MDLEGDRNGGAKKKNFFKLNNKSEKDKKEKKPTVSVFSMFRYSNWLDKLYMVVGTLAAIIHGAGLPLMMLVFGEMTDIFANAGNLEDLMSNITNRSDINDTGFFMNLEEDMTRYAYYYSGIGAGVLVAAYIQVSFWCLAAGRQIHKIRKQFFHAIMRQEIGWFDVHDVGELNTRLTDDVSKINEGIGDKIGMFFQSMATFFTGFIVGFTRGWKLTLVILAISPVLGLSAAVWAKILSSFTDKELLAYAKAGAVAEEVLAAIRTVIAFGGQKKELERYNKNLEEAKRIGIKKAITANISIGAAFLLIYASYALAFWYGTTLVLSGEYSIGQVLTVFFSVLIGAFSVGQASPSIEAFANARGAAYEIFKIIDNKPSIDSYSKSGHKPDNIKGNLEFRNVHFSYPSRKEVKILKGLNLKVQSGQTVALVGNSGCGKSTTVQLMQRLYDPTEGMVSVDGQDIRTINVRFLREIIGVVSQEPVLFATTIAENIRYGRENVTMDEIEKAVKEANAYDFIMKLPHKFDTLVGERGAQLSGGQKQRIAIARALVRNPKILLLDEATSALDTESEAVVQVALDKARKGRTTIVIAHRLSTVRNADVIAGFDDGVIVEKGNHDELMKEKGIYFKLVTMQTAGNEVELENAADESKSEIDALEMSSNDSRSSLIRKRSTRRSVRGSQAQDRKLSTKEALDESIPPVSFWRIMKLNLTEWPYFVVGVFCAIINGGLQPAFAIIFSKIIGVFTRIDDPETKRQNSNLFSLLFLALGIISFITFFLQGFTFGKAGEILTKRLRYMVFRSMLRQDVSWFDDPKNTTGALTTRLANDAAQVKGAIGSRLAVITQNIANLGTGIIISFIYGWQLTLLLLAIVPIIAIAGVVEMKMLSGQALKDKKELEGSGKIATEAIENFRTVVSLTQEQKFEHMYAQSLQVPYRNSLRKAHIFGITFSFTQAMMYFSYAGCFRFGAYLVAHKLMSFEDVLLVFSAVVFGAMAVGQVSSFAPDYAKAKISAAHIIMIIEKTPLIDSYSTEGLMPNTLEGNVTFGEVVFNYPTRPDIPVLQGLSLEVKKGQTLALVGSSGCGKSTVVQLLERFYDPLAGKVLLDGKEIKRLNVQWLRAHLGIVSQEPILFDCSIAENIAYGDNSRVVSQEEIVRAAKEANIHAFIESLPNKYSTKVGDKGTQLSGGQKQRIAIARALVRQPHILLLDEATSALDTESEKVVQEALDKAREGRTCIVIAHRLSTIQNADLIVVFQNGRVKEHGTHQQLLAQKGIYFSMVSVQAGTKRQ
assayDetails: Transporter mediated assay (substrate/inhibitor), MDCK-II cells
Type: in vitro ADME
appliedConditions: human, MDCK-MDR1; P-gp, substrate test, 0.1 µM
measuredQuantity: Papp B→A at 0.1 µM

IN: Identify Papp B→A at 0.1 µM associated with the molecule C=C[C@H]1C[N@@]2CC[C@H]1C[C@@H]2[C@@H](O)c1ccnc2ccc(OC)cc12 [quinidine, reference compound]
OUT: 80.7 ×10⁻⁶ cm/s

###

assayDetails: Metabolic stability in hepatocyte
appliedConditions: Sprague Dawley (rat); Beagle (dog), human, rat, dog, hepatocytes in suspension
measuredQuantity: half-life at 0.5 μM

IN: Identify half-life at 0.5 μM associated with the molecule CCc1cc(Cl)c(OC)c(N2CCN(CC(O)CCNC(=O)c3cc4ccccc4[nH]3)CC2)c1 (stereo not shown)
OUT: 1.52 to 1.95 h

###

assayDetails: Metabolic stability in liver microsomes
appliedConditions: monkey, heat-inactivated liver microsomes, pH 7.4
measuredQuantity: remaining at 2 h, 1 μM (%)
Answers are plain numbers, in %.

IN: Identify remaining at 2 h, 1 μM associated with the molecule CCc1cc(Cl)c(OC)c(N2CCN(CC(O)CCNC(=O)c3cc4ccccc4[nH]3)CC2)c1 (stereo not shown) [R-VK4-116]
OUT: 90
